# Tested on: MDCK p60AmotL2-inducible + doxycycline (p60AmotL2 expressing)
# Test Method Notes: drug sensitivity score (DSS) from 5-dose viability curve (DSS (area-based score, 0 = no response)); higher = more sensitive (stronger viability inhibition); extreme values may be limits of the assay
# Condition Notes: doxycycline: 10 ng/mL; 72 h
Assay Readout: drug sensitivity score
Answer with the value's number alone.

Query: drug sensitivity score lookup needed for CC(C)c1cc(-c2n[nH]c(=O)n2-c2ccc3c(ccn3C)c2)c(O)cc1O , thanks.
Response: 19.3

Query: Which drug sensitivity score is reported for this compound? C=CC(=O)N1CC/C(=C\c2ccc(F)c([N+](=O)[O-])c2)C(=O)/C(=C/c2ccc(F)c([N+](=O)[O-])c2)C1
Response: 17.2

Query: Returns the measured drug sensitivity score for the input compound. Input: C[C@H]1C[C@@H]2[C@H]([C@@H](O)C[C@@]3(C)[C@H]2CC[C@]3(O)C(=O)CO)[C@@]2(C)C=CC(=O)C=C12
Response: 0

Query: Any idea what its drug sensitivity score is? The compound is COc1cc2c(cc1OCCCN1CCCC1)N=C(N)C21CCC1
Response: 0

Query: // returns reported drug sensitivity score for input CC(=O)O[C@H]1C(=O)[C@@]2(C)[C@H]([C@H](OC(=O)c3ccccc3)[C@]3(O)C[C@H](OC(=O)[C@H](O)[C@@H](NC(=O)c4ccccc4)c4ccccc4)C(C)=C1C3(C)C)[C@]1(OC(C)=O)CO[C@@H]1C[C@@H]2O
Response: 21.8

Query: # query: drug sensitivity score of entry O=C1NC(=O)[C@@H](c2cn3c4c(cccc24)CCC3)[C@@H]1c1c[nH]c2ccccc12 [Tivantinib]
Response: 2.7

Query: Item under review: O=C(Nc1ccc2[nH]nc(-c3ccncc3)c2c1)[C@@H]1CCN(CC(=O)N2CCN(c3ccc(-c4ncccn4)cc3)CC2)C1 . Reported drug sensitivity score?
Response: 10.7

Query: # query: drug sensitivity score of entry Nc1ncnc2c1nc(N)n2[C@@H]1O[C@H](CO)[C@@H](O)[C@H]1O
Response: 19.8

Query: Endpoint output: drug sensitivity score of CCN(CC)CCCC(C)Nc1ccnc2cc(Cl)ccc12 (stereo not given) . Value?
Response: 5.2

Query: # lookup: drug sensitivity score of CC(C)(C)NC(=O)[C@H]1CC[C@H]2[C@@H]3CC[C@H]4NC(=O)C=C[C@]4(C)[C@H]3CC[C@]12C [Finasteride]
Response: 0

Query: Any idea what drug sensitivity score was measured for O=C(CCCCCCC(=O)Nc1ccccc1)NO ?
Response: 11.8

Query: Using the record for CCNCCS(=O)(=O)NC[C@@]1(c2ccccc2)SC(NC(=O)C(C)(C)C)=NN1C(=O)C(C)(C)C , report its drug sensitivity score.
Response: 26.6

Query: drug sensitivity score; subject: CC[C@H](C)C(=O)O[C@H]1C[C@H](O)C=C2C=C[C@H](C)[C@H](CC[C@@H](O)C[C@@H](O)CC(=O)O)[C@H]21
Response: 0

Query: Can you look up the measured drug sensitivity score of CC(C)n1cnc2c(NCCc3ccc(O)cc3)nc(-c3csc4ccccc34)nc21 for me?
Response: 1.5

Query: // lookup drug sensitivity score for CC(C)(C)C[C@@H]1N[C@@H](C(=O)N[C@H]2CC[C@H](O)CC2)[C@H](c2cccc(Cl)c2F)[C@]12C(=O)Nc1cc(Cl)ccc12
Response: 7.2
